# MEASURED_ON: Peroxisome proliferator-activated receptor alpha (Homo sapiens)
# Sequence (whole entry): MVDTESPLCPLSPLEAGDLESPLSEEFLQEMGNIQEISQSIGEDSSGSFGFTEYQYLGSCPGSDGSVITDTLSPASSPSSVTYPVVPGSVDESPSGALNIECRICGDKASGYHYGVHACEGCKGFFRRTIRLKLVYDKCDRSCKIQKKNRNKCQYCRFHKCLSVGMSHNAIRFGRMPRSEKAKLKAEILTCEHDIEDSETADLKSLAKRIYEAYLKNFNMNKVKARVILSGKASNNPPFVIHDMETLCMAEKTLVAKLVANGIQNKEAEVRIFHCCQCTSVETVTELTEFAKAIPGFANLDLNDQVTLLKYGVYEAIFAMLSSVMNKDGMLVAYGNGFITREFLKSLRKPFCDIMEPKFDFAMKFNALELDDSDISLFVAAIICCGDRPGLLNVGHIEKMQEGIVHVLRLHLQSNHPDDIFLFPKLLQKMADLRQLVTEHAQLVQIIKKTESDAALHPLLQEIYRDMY
# TEST_NAME: Agonist activity at Gal4-fused human PPARalpha LBD transfected in HEK293T cells assessed as maximal relative activation incubated for 14 to 16 hrs by dual-Glo luciferase assay relative to GW7647
# Type: cell-based
# PROTOCOL_CONDITIONS: filed as agonist, time 14-16 hrs
VALUE_KIND: max activation (%)

# LINE_NOTATION, max activation (%)
rows = [
    ("Cc1cc(/N=N\\c2ccccc2)ccc1OCCc1ccc(OC(C)(C)C(=O)O)cc1", 43),
]

a. Cc1ccc(/N=N\c2ccc(OCCc3ccc(OC(C)(C)C(=O)O)cc3)c(Cl)c2)cc1
b. Cc1ccc(/N=N/c2ccc(OCCc3ccc(OC(C)(C)C(=O)O)cc3)c(C(F)(F)F)c2)cc1
Q. Please tell me which of the two, a or b , has the higher reported max activation value. Let me know the label of the one you choose.
A. b
(b: 87%, a: 41%)

---

# MEASURED_ON: Peroxisome proliferator-activated receptor delta (Homo sapiens) (UniProt Q03181)
# Sequence (Q03181 whole entry, the tested form may be a part): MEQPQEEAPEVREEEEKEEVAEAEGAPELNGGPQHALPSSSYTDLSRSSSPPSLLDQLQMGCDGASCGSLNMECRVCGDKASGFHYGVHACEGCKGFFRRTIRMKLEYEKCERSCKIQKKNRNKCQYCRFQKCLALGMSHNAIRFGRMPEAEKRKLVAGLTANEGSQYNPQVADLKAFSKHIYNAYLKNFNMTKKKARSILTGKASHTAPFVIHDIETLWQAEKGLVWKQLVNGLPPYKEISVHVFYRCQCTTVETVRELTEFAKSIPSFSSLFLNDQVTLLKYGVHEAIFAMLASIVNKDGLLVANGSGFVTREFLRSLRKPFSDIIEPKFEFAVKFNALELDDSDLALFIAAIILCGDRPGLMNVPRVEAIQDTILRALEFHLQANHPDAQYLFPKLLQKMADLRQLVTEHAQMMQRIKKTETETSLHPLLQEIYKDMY
# TEST_NAME: Agonist activity at Gal4-fused human PPARdelta LBD transfected in HEK293T cells assessed as maximal relative activation incubated for 14 to 16 hrs by dual-Glo luciferase assay relative to L165,041
# Type: cell-based
# PROTOCOL_CONDITIONS: time 14-16 hrs
VALUE_KIND: max activation (%)

# LINE_NOTATION, UNIT_OF_MEASUREMENT, max activation
records = [
    ("CC(C)(Oc1ccc(CCOc2ccc(/N=N\\c3ccccc3)cc2)cc1)C(=O)O", "%", 34),
    ("CC(C)c1ccc(/N=N\\c2ccc(OCCc3ccc(OC(C)(C)C(=O)O)cc3)cc2)cc1", "%", 22),
]

1. CC(C)(Oc1ccc(CCOc2ccc(/N=N/c3ccc(Cl)cc3)cc2)cc1)C(=O)O
2. CC(C)(Oc1ccc(COc2ccc(/N=N\c3ccccc3)cc2)cc1)C(=O)O
Q. Please tell me which of the two, 1 or 2 , has the higher reported max activation value. Let me know the label of the one you choose.
A. 1

---

# MEASURED_ON: Peroxisome proliferator-activated receptor alpha (Homo sapiens)
# TEST_NAME: Agonist activity at Gal4-fused human PPARalpha LBD transfected in HEK293T cells assessed as transcriptional activation incubated for 14 to 16 hrs by dual-Glo luciferase assay
VALUE_KIND: EC50 (nM)

Examples with their reported EC50 follow.
# LINE_NOTATION, EC50, nM
data = [
    ("CC(C)(Oc1ccc(CCOc2ccc(/N=N\\c3ccc(Cl)cc3)cc2)cc1)C(=O)O", 1100),
    ("Cc1ccc(/N=N/c2ccc(OCCc3ccc(OC(C)(C)C(=O)O)cc3)c(C(F)(F)F)c2)cc1", 70),
    ("CC(C)(Oc1ccc(CCOc2ccc(/N=N\\c3ccccc3)cc2)cc1)C(=O)O", 800),
    ("Cc1ccc(/N=N/c2ccc(OCCc3ccc(OC(C)(C)C(=O)O)cc3)c(C)c2)cc1", 36),
]

1. CC(C)(Oc1ccc(CCOc2ccc(/N=N\c3ccccc3)cc2C(F)(F)F)cc1)C(=O)O
2. CC(C)(Oc1ccc(COc2ccc(/N=N/c3ccccc3)cc2)cc1)C(=O)O
3. CC(C)(Oc1ccc(CCOc2ccc(/N=N/c3ccc(Cl)cc3)cc2)cc1)C(=O)O
4. CC(C)(Oc1ccc(CCOc2ccc(/N=N/c3ccccc3)cc2C(F)(F)F)cc1)C(=O)O
Q. Hey, can you sort those compounds up there by EC50, smallest first? Field: ranking. Enter the labels in the order requested.
A. 4, 1, 3, 2
(4: 9 nM, 1: 71 nM, 3: 790 nM, 2: 3700 nM)

P. Cc1cc(/N=N/c2ccccc2)ccc1OCCc1ccc(OC(C)(C)C(=O)O)cc1
Q. Cc1ccc(/N=N\c2ccc(OCCc3ccc(OC(C)(C)C(=O)O)cc3)c(Cl)c2)cc1
Q. // returns P or Q , whichever has the lower EC50 Let me know the label of the one you choose.
A. P

---

# MEASURED_ON: Peroxisome proliferator-activated receptor alpha (Homo sapiens)
# TEST_NAME: Agonist activity at Gal4-fused human PPARalpha LBD transfected in HEK293T cells assessed as maximal relative activation incubated for 14 to 16 hrs by dual-Glo luciferase assay relative to GW7647
# Type: cell-based
# PROTOCOL_CONDITIONS: filed as agonist, time 14-16 hrs
VALUE_KIND: max activation (%)

# LINE_NOTATION, UNIT_OF_MEASUREMENT, max activation
rows = [
    ("CC(C)(Oc1ccc(CCOc2ccc(/N=N\\c3ccccc3)cc2C(F)(F)F)cc1)C(=O)O", "%", 42),
    ("Cc1ccc(/N=N\\c2ccc(OCCc3ccc(OC(C)(C)C(=O)O)cc3)c(C(F)(F)F)c2)cc1", "%", 41),
    ("CC(C)(Oc1ccc(CCOc2ccc(/N=N/c3ccccc3)cc2Cl)cc1)C(=O)O", "%", 49),
]
